Each entry below lists one item and its recorded AUC(0-t) value.
assay-protocol: Pharmacokinetics in rat
Format: in vivo
particulars: male, plasma; SD rat, po, 2 mg/kg
property-measured: AUC(0-t)

>  <compound-structure-string>
C=CC(=O)Nc1cccc(Nc2nc(Nc3ccc(C4CCN(S(C)(=O)=O)CC4)cc3OC)ncc2C(F)(F)F)c1

>  <result>
754 ng·h/mL

$$$$
>  <compound-structure-string>
C=CC(=O)Nc1cccc(Nc2nc(Nc3ccc(C4CCN(C(C)=O)CC4)cc3OC)ncc2C(F)(F)F)c1

>  <result>
267 ng·h/mL

$$$$

###

tgt: EGFR T790M (Homo sapiens (Human), UniProt P00533, T790M)
Sequence (P00533 25-1210 T790M): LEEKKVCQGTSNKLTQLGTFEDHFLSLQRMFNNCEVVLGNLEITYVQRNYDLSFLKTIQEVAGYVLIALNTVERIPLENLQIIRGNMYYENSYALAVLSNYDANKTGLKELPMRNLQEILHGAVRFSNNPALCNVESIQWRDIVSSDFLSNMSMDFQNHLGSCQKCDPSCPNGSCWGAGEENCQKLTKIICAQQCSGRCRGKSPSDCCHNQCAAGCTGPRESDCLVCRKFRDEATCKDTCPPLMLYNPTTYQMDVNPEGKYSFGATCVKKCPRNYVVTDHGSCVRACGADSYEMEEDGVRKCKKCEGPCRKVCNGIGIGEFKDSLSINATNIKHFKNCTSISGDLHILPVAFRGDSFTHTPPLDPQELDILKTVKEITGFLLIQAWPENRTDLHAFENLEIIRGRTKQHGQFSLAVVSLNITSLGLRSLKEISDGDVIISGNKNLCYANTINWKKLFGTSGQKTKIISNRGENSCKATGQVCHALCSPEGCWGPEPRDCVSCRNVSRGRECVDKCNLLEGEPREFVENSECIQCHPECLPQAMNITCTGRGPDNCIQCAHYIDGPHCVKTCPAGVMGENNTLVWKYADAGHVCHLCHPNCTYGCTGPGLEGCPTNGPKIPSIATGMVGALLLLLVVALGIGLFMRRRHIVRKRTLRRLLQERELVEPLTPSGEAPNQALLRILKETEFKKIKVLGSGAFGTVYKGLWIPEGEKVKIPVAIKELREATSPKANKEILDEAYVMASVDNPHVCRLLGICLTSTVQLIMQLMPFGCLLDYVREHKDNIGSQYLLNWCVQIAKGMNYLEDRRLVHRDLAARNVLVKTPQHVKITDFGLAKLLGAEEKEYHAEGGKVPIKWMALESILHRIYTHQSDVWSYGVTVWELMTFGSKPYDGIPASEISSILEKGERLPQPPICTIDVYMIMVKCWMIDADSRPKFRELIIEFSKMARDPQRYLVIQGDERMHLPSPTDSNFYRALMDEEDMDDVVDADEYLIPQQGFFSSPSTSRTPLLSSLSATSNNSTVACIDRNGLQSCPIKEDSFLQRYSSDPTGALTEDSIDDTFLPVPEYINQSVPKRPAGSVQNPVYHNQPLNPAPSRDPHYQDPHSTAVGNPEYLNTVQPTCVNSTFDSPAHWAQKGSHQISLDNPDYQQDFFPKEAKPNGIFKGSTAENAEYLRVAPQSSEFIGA
assay-protocol: Mobility Shift Assay, in vitro enzyme-inhibiting activity, EGFR T790M
Assay type: biochemical
particulars: Table 4; ratio of IC50

>  <molecule>
C=CC(=O)Nc1cccc(Nc2nc(Nc3ccc(N4CC5CCC(C4)N5C(C)=O)cc3OC)ncc2C(F)(F)F)c1

>  <Selectivity (WT/T790M)>
53.5

$$$$
>  <molecule>
C=CC(=O)Nc1cccc(Nc2nc(Nc3ccc(C4CCN(C(=O)CCF)CC4)cc3OC)ncc2C(F)(F)F)c1

>  <Selectivity (WT/T790M)>
96.2

$$$$
>  <molecule>
C=CC(=O)Nc1cccc(Nc2nc(Nc3ccc4c(c3OC)CN(C(C)=O)CC4)ncc2C(F)(F)F)c1

>  <Selectivity (WT/T790M)>
85.6

$$$$
>  <molecule>
C=CC(=O)Nc1cccc(Nc2nc(Nc3ccc(C4CCN(CCF)C(=O)C4)cc3OC)ncc2C(F)(F)F)c1 (stereo not shown)

>  <Selectivity (WT/T790M)>
75.4

$$$$

###

Each entry below lists one item and its recorded Selectivity (A431/H1975) value.
System: H1975 cell (EGFR-T790M/L858R double mutation)
assay-protocol: In vitro cytologic activity, Celltiter-Glo, H1975 cells
Type: cell-based, human
particulars: Table 10; ratio of IC50

>  <compound>
C=CC(=O)Nc1cccc(Nc2nc(Nc3ccc(C4CCN(C)C(=O)C4)cc3OC)ncc2C(F)(F)F)c1 (stereo not shown) [Compound 21]

>  <Selectivity (A431/H1975)>
11.9

$$$$
>  <compound>
C=CC(=O)Nc1cccc(Nc2nc(Nc3ccc(C4CCN(C5COC5)CC4)cc3OC)ncc2C(F)(F)F)c1 [Compound 41]

>  <Selectivity (A431/H1975)>
8.6

$$$$
>  <compound>
C=CC(=O)Nc1cccc(Nc2nc(Nc3ccc(N4CC5(CN(C(C)=O)C5)C4)cc3OC)ncc2C(F)(F)F)c1 [Compound 31]

>  <Selectivity (A431/H1975)>
9.8

$$$$
>  <compound>
C=CC(=O)Nc1cccc(Nc2nc(Nc3ccc(OCCCS(C)(=O)=O)cc3OC)ncc2C(F)(F)F)c1 [Compound 43]

>  <Selectivity (A431/H1975)>
6.1

$$$$
>  <compound>
C=CC(=O)Nc1cccc(Nc2nc(Nc3ccc(OC)c4c3CN(C(C)=O)C4)ncc2C(F)(F)F)c1 [Compound 36]

>  <Selectivity (A431/H1975)>
21.5

$$$$
>  <compound>
C=CC(=O)Nc1cccc(Nc2nc(Nc3ccc(C4CCN(S(C)(=O)=O)CC4)cc3OC)ncc2C(F)(F)F)c1 [Compound 27]

>  <Selectivity (A431/H1975)>
10.0

$$$$
>  <compound>
C=CC(=O)Nc1cccc(Nc2nc(Nc3ccc(N4CCC(N5CCOCC5)CC4)cc3OC)ncc2C(F)(F)F)c1 [Compound 28]

>  <Selectivity (A431/H1975)>
9.4

$$$$
>  <compound>
C=CC(=O)Nc1cccc(Nc2nc(Nc3ccc(OC)c4c3CCN(C(C)=O)C4)ncc2C(F)(F)F)c1 [Compound 35]

>  <Selectivity (A431/H1975)>
13.5

$$$$
>  <compound>
C=CC(=O)Nc1cccc(Nc2nc(Nc3ccc(C4CCN(C(=O)CCF)CC4)cc3OC)ncc2C(F)(F)F)c1 [Compound 25]

>  <Selectivity (A431/H1975)>
12.6

$$$$
>  <compound>
C=CC(=O)Nc1cccc(Nc2nc(Nc3ccc(C4CCN(C)CC4)cc3OC)ncc2C(F)(F)F)c1 [Compound 29]

>  <Selectivity (A431/H1975)>
12.1

$$$$

###

assay-protocol: Pharmacokinetics in dog
Type: in vivo, male Beagle dog
particulars: male, plasma; Beagle dog, po, 0.54 mg/kg; read-out: F (absolute bioavailability)

>  <compound-structure-string>
C=CC(=O)Nc1cccc(Nc2nc(Nc3ccc(C4CCN(C(C)=O)CC4)cc3OC)ncc2C(F)(F)F)c1

>  <bioavailability, %>
70

$$$$

###

Each entry below lists one item and its recorded Selectivity WT/T790M-L858R value.
tgt: EGFR T790M-L858R (Homo sapiens (Human), UniProt P00533, L858R/T790M)
Sequence (P00533 25-1210 T790M/L858R): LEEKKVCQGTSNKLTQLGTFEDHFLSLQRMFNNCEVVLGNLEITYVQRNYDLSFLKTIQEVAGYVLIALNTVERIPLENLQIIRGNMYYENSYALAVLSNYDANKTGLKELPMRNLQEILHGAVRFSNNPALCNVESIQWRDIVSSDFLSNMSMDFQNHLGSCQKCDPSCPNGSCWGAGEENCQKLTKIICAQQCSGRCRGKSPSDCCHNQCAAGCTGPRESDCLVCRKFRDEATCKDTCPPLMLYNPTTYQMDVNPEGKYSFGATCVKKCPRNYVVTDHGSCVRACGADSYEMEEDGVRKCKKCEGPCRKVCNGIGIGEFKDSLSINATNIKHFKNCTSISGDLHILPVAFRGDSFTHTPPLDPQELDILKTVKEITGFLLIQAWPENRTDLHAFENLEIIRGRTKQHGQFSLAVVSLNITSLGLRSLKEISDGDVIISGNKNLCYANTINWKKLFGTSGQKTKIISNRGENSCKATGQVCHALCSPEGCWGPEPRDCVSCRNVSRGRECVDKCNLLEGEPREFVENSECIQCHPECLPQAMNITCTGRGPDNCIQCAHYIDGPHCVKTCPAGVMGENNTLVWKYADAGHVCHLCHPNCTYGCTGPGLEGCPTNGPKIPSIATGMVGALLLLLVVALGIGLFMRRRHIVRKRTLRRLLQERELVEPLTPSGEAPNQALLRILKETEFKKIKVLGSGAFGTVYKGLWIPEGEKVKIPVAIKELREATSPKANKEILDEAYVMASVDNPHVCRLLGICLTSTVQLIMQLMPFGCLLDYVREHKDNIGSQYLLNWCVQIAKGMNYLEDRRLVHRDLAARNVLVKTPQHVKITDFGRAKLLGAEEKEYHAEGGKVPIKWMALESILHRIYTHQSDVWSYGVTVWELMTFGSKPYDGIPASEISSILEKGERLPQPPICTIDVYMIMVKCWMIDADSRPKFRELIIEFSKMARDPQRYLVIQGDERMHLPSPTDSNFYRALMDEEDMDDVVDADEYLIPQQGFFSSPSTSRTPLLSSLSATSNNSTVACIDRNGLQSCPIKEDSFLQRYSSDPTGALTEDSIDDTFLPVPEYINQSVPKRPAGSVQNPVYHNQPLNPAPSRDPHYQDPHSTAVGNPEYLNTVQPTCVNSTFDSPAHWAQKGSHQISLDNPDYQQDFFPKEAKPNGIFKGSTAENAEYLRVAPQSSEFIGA
assay-protocol: Mobility Shift Assay, in vitro enzyme-inhibiting activity, EGFR T790M-L858R
Format: biochemical
particulars: Table 7; ratio of IC50
property-measured: Selectivity WT/T790M-L858R

>  <molecule>
C=CC(=O)Nc1cccc(Nc2nc(Nc3ccc(N4C[C@H]5CN(C(C)=O)C[C@H]5C4)cc3OC)ncc2C(F)(F)F)c1

>  <property-measured>
Selectivity WT/T790M-L858R

>  <number>
44.5

$$$$
>  <molecule>
C=CC(=O)Nc1cccc(Nc2nc(Nc3ccc(C4CCN(C(=O)CC)CC4)cc3OC)ncc2C(F)(F)F)c1

>  <property-measured>
Selectivity WT/T790M-L858R

>  <number>
65.4

$$$$
>  <molecule>
C=CC(=O)Nc1cccc(Nc2nc(Nc3ccc(C4CCN(C(C)=O)CC4)cc3OC)ncc2C(F)(F)F)n1

>  <property-measured>
Selectivity WT/T790M-L858R

>  <number>
81.3

$$$$
>  <molecule>
C=CC(=O)Nc1cccc(Nc2nc(Nc3ccc(C4CCNC(=O)C4)cc3OC)ncc2C(F)(F)F)c1 (centres unmarked)

>  <property-measured>
Selectivity WT/T790M-L858R

>  <number>
44.6

$$$$
>  <molecule>
C=CC(=O)Nc1cccc(Nc2nc(Nc3ccc(N4CC5(CN(C(C)=O)C5)C4)cc3OC)ncc2C(F)(F)F)c1

>  <property-measured>
Selectivity WT/T790M-L858R

>  <number>
44.4

$$$$

###

assay-protocol: Pharmacokinetics in rat
Type: in vivo
particulars: male, plasma; SD rat, iv, 0.74 mg/kg
property-measured: clearance (mL/min/kg)

>  <compound-structure-string>
C=CC(=O)Nc1cccc(Nc2nc(Nc3ccc(N4CC5(CN(C(C)=O)C5)C4)cc3OC)ncc2C(F)(F)F)c1

>  <property-measured>
clearance

>  <unit-symbol>
mL/min/kg

>  <number>
12.2

$$$$

###

tgt: EGFR T790M-L858R (Homo sapiens (Human), UniProt P00533, L858R/T790M)
assay-protocol: Mobility Shift Assay, in vitro enzyme-inhibiting activity, EGFR T790M-L858R
Assay type: biochemical
particulars: Table 8; Km ATP; read-out: IC50 EGFRT790M-L858R
pIC50: −log10 of the molar value.
Each entry below lists one item and its recorded pIC50 value.

>  <compound-structure-string>
C=CC(=O)Nc1cccc(Nc2nc(Nc3ccc(N4CCC(N5CCOCC5)CC4)cc3OC)ncc2C(F)(F)F)c1

>  <pIC50>
8.82

$$$$
>  <compound-structure-string>
C=CC(=O)Nc1cccc(Nc2nc(Nc3ccc(C4CCN(S(C)(=O)=O)CC4)cc3OC)ncc2C(F)(F)F)c1

>  <pIC50>
8.01

$$$$

###

assay-protocol: Pharmacokinetics in rat
Type: in vivo
particulars: male, plasma; SD rat, iv, 0.74 mg/kg
Procedure: Test animal: male SD rat, 3 rats, weight: 200-250 g/rat Blank solvent for intragastric administration (po) of Compound 2, 27: 0.1% Tween 80+2% HPC (hydroxypropyl cellulose), […] The plasma samples of Compound 2, 27, and 31 were analyzed by means of protein precipitation: to 30 μL plasma, 200 μL internal standard (acetonitrile solution containing 50 ng/mL CNX-2006, the structure of which is […]
property-measured: AUC(0-t) (ng·h/mL)

>  <compound>
C=CC(=O)Nc1cccc(Nc2nc(Nc3ccc(N4CC5(CN(C(C)=O)C5)C4)cc3OC)ncc2C(F)(F)F)c1 [Compound 31]

>  <property-measured>
AUC(0-t)

>  <unit-symbol>
ng·h/mL

>  <number>
1020

$$$$

###

tgt: EGFR T790M-L858R (Homo sapiens (Human), UniProt P00533, L858R/T790M)
assay-protocol: Mobility Shift Assay, in vitro enzyme-inhibiting activity, EGFR T790M-L858R
Type: biochemical
particulars: Table 7; Km ATP
pIC50: −log10 of the molar value.
Each entry below lists one item and its recorded pIC50 value.

>  <compound>
C=CC(=O)Nc1cccc(Nc2nc(Nc3ccc(C4CCN(C(=O)CC)CC4)cc3OC)ncc2C(F)(F)F)c1 [Compound 24]

>  <pIC50>
7.99

$$$$
>  <compound>
C=CC(=O)Nc1cccc(Nc2nc(Nc3ccc(C4CCN(C(C)=O)CC4)cc3OC)ncc2C(F)(F)F)n1 [Compound 4]

>  <pIC50>
8.28

$$$$
>  <compound>
C=CC(=O)Nc1cccc(Nc2nc(Nc3ccc(N4CC5(CN(C(C)=O)C5)C4)cc3OC)ncc2C(F)(F)F)c1 [Compound 31]

>  <pIC50>
8.33

$$$$
>  <compound>
C=CC(=O)Nc1cccc(Nc2nc(Nc3ccc(C4CCNC(=O)C4)cc3OC)ncc2C(F)(F)F)c1 (centres unmarked) [Compound 22]

>  <pIC50>
8.39

$$$$
>  <compound>
C=CC(=O)Nc1cccc(Nc2nc(Nc3ccc(N4C[C@H]5CN(C(C)=O)C[C@H]5C4)cc3OC)ncc2C(F)(F)F)c1 [Compound 9-1]

>  <pIC50>
7.90

$$$$
